- Assay Target: fusion protein PRS
- Sequence (chain, as listed by the source): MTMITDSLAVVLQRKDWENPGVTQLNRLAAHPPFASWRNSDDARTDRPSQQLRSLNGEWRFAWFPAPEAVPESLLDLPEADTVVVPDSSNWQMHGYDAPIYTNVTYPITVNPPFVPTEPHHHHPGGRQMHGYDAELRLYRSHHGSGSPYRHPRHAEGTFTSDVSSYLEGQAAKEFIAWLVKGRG
Measurement Name: relative cleavage efficiency

## Input relative cleavage efficiency lookup needed for OmpT protease variant OmpT D97F (protein) STETLSFTPDNINADISLGTLSGKTKERVYLAEEGGRKVSQLDWKFNNAAIIKGAINWDLMPQISIGAAGWTTLGSRGGNMVDQDWMDSSNPGTWTFESRHPDTQLNYANEFDLNIKGWLLNEPNYRLGLMAGYQESRYSFTARGGSYIYSSEEGFRDDIGSFPNGERAIGYKQRFKMPYIGLTGSYRYEDFELGGTFKYSGWVESSDNDEHYDPGKRITYRSKVKDQNYYSVAVNAGYYVTPNAKVYVEGAWNRVTNKKGNTSLYDHNNNTSDYSKNGAGIENYNFITTAGLKYTF , thanks.
## Output < 3%
